Tested on: MS2 coat protein
Assay: apparent KD of MS2 coat protein; designed switch direction (-1 OFF switch, 1 ON switch): -1; higher = weaker reporter binding
Details: input ligand: microRNA oligo, concentration not stated
Reported apparent KD of MS2 coat protein values are given for each entry in this list.
Enter your answer as a number in nM; do not include the unit.

Worked examples follow.
{"columns": ["SEQUENCE CHAIN", "RECORDED MEASUREMENT"],
 "data": [
  ["GCCCGUGGGCAAGGAUAUCCUACGCUGUUCUGGUUCGUGUCUGUCACAUGAGGAUCACCCAUGUGGGAGAAGGUGCAUUAGGGU [Design 54] (Eterna round: R96, puzzle: Exclusion NG 2)", 12.3],
  ["ACAUGUCAUCGAGGAUAUUGGACACAUGAGGAUCACCCAUGUACCCGGAGGCUCUACUAUGAGUUCGAGAAGGCGAUGUACAUG [Ex NG2 #74] (Eterna round: R96, puzzle: Exclusion NG 2)", 19.5],
  ["UUUCUUGGGCAAGGAUAUCCUGUGCGGUUCCGGCUCGUGUCUGUCACAUGAGGAUCACCCAUGUGGGAGAAGGUGCCUGCGGUC [Design 82] (Eterna round: R96, puzzle: Exclusion NG 2)", 11.2],
  ["GGAAGAGAGAUAGGAUAUCAGAGGAAGAUGGUGAGAGAGACAUGAGGAUCACCCAUGUGAAGGAAUGAGAAGGGUCAGAAGGAA [EXNG2 V2 h] (Eterna round: R96, puzzle: Exclusion NG 2)", 133]
]}

Exercise: Param readout= apparent KD of MS2 coat protein; system= MS2 coat protein; entry= AUAAGCCCGGCAGGAUAUCACAGGUUGCCGGGUAUCAACAUGAGGAUCACCCAUGUACACCUGCUUGAGAAGGGCCCAAGGGCG [Inarza] (Eterna round: R96, puzzle: Exclusion NG 2) ; returns value.
Solution: 69.6

Exercise: Param readout= apparent KD of MS2 coat protein; system= MS2 coat protein; entry= UGAGUGCUGCGAGGAUAUACAUGAGGAUCACCCAUGUUUACCUGUGAGGCUUUGCCUCACAGGUUGUAGAAGGCGCAGUACUCU [JL ENG2 1.15] (Eterna round: R96, puzzle: Exclusion NG 2) ; returns value.
Solution: 9.11

Exercise: Param readout= apparent KD of MS2 coat protein; system= MS2 coat protein; entry= AGAUCUAGGACAGGAUAUAUAGAUGGCUUCAUCGAAGAUGAAGCCAUCACAUGAGGAUCACCCAUGUAGAAGGGUCCUAGAUCA [Omei Exc(NG) 2Av6] (Eterna round: R96, puzzle: Exclusion NG 2) ; returns value.
Solution: 8.74

Exercise: Param readout= apparent KD of MS2 coat protein; system= MS2 coat protein; entry= CCUAGUUGGUAAGGAUAUCCUACACUAUUCUGACCCGUGCAAGCUACAUGAGGAUCACCCAUGUGGGAGAAGGUGCGUCAACGU [Design 10] (Eterna round: R96, puzzle: Exclusion NG 2) ; returns value.
Solution: 18.2

Exercise: Param readout= apparent KD of MS2 coat protein; system= MS2 coat protein; entry= ACAUGUGUUGUAGGAUAUAGGAGACAUGAGGAUCACCCAUGUUGAUUCAUGUCUAUGGAAACGUCCUAGAAGGACGACAACAUG [Ex NG2 #20] (Eterna round: R96, puzzle: Exclusion NG 2) ; returns value.
Solution: 111

Exercise: Param readout= apparent KD of MS2 coat protein; system= MS2 coat protein; entry= UCCACAUGAGGAUCACCCAUGUAAGGUGAGUAAAAGAAGAGGCAGGAUAUUGAAGCGACCUCGCCCAAGAAGGGCCUCACCAAA [Eternabot solution 11] (Eterna round: R96, puzzle: Exclusion NG 3) ; returns value.
Solution: 44.8

Exercise: Param readout= apparent KD of MS2 coat protein; system= MS2 coat protein; entry= CAUAGUUACUCAGGAUAUACUACAUGAGGAUCACCCAUGUAAUAAAUGAGAAUUUCGAAUGUAUAGUAGAAGGGAGAAAUCUAC [Ostracism 56 - Jieux - Exclusion NG 2] (Eterna round: R96, puzzle: Exclusion NG 2) ; returns value.
Solution: 14.7

----------
System: MS2 coat protein
Test: apparent KD of MS2 coat protein; designed switch direction (-1 OFF switch, 1 ON switch): -1; higher = weaker reporter binding
Conditions: Eterna round: R95; input ligand: none
apparent KD of MS2 coat protein vs 50 nM: at or above is 1 (yes), below is 0 (no).

{"columns": ["SEQUENCE CHAIN", "ASSAYED SYSTEM", "CLASS LABEL"],
 "data": [
  ["CUUAGACAUGAGGAUCACCCAUGUGAGGAUAUGAUGCGAAUAAGUAAGUAAUAAAGCAUCAGAAGGCACAUAUG [Mat - Mod of Hyphema D28] (puzzle: Exclusion 1)", "MS2 coat protein", "1 (yes)"],
  ["AAGAAACAUGAGGAUCACCCAUGUGAGGAUAUGUAAAAUAAAAGAAAAGAAAGAAUAAACAGAAGGCACAAAGG [Mat - Mod of Hog D14] (puzzle: Exclusion 1)", "MS2 coat protein", "1 (yes)"],
  ["CCGGAAGUACAGGAUAUCGUAACGGAUACGUUACGAGAAGGGUAUACAUGAGGAUCACCCAUGUGUCCUACCGG [Mat - Exclusion 6 - Eli Mod - D95] (puzzle: Exclusion 6)", "MS2 coat protein", "0 (no)"],
  ["UUAUAUAAUGUGAGGAUAUGCUGGUCGAUAGAUCAGCAGAAGGCACAUGAGGAUCACCCAUGUAGUAAAUUUUA [Mat - Exclusion 4 - JL Mod - D13] (puzzle: Brourd's mod of Exclusion 4)", "MS2 coat protein", "0 (no)"],
  ["AAGAAACAUGAGGAUCACCCAUGUGAGGAUAUGACGAAGAAAAGAAAAGAAAGAAGAUUCAGAAGGCACAAAGG [salish99-ex1_r3_061] (puzzle: Exclusion 1)", "MS2 coat protein", "1 (yes)"],
  ["ACGUGAUAUCUGUCGGUGGACAUGAGGAUCACCCAUGUAAGCUUUUUGCCCGUCUUAUAACCCGGUGACAGACCUUC [Orlequla] (puzzle: Sensor v3, turn-off variant 1)", "MS2 coat protein", "1 (yes)"],
  ["AUAAGCUUUGAGAUCCUUAACAUGAGGAUCACCCAUGUUCGUCUUAUGAUGGUCUGAUCCCUGAGGAUCGGACCGUA [Mat - Sensor v3 - turn-off var 1 - JL Mod - D1] (puzzle: Sensor v3, turn-off variant 1)", "MS2 coat protein", "1 (yes)"],
  ["UUUUUCAGGCCAGAUCCUCACAUGAGGAUCACCCAUGUGCUCGUCUGUUUUCGCUCUGUCUUUUUUUUGGUGGUGCU [Level Boss var2-20] (puzzle: Sensor v3, turn-off variant 1)", "MS2 coat protein", "1 (yes)"],
  ["GCCAGAGCAGGAUAUUCAAUAAUUCACAUGAGGAUCACCCAUGUCCAGCGAAAGCUGGAGGGAGAAGGGCUCUGGC [Fiskers Ex 5 - 2] (puzzle: Exclusion 5)", "MS2 coat protein", "0 (no)"]
]}

Proceed to the following item.
Exercise: Does apparent KD of MS2 coat protein meet or surpass 50 nM for GAGGGACAUGAGGAUCACCCAUGUGAGGAUAUGUGAGAAGGAUUGGAGAGAAAAGGAAACAGAAGGCGCGGGAG [JR_Exclu1_Sub086] (puzzle: Exclusion 1) ?
Solution: 1 (yes)

----------
System: K4 kissing-loop RNA reporter;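 further: bound reporter read as fluorescence of individual clusters on recovered sequencing chips by microscopy, with normalized cluster intensities fitted with a binding model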
Experiment: apparent KD of K4 kissing-loop reporter; higher = weaker reporter binding
Conditions: Eterna round: R107; input ligand: theophylline 20 uM
MEASUREMENT KIND: apparent KD of K4 kissing-loop reporter
Please give the number followed by its unit.

Worked examples follow.
{"columns": ["SEQUENCE CHAIN", "apparent KD of K4 kissing-loop reporter"],
 "data": [
  ["GGGAAGAAGGCGGCCGCCACUGCAGAAGAGACAGAGAGAGAAGAAGAGGAGUGAUGUUCCAAGAACAGGACCGGGCCAAGAAGGG [whbob_SS_Tryp_B_t28]", "146 nM"],
  ["GUAUCGCUAGGAGGAUAUUUCAAUUUGACUCUUUGAGUUAAUACGGAGUGAUGUUCCGAUUUACGGAAAGAAGGCCUAGUGAUAC [FMN B 13]", "219 nM"]
]}

Kindly review the next sequence as well.
Exercise: What apparent KD of K4 kissing-loop reporter value was documented for this sequence, GUAGCACUCGGUAGUGAUGUUAUCGAGGACAAGGAUAUCAUCUCAAUGAGAAGGUGUCCUUGAUAACAGCUACGGGAAUAUCCCA [Omei KL FMN A Exc D v4] ?
Solution: 120 nM

----------
Tested on: MS2 coat protein
Assay: apparent KD of MS2 coat protein; designed switch direction (-1 OFF switch, 1 ON switch): -1; higher = weaker reporter binding
Details: input ligand: FMN 200 uM
Class definitions on apparent KD of MS2 coat protein: class 0 = under 30 nM, class 1 = from 30 nM up to 100 nM, class 2 = 100 nM and over

{"columns": ["SEQUENCE CHAIN", "CLASS LABEL"],
 "data": [
  ["GCCGCUCACGAGGAUAUGGUGGAAAAGCCUUUGCUAGAAGGCGUGACAUGAGGAUCACCCAUGUAGGCACAUGA [Eternabot (L1) Solution 85] (Eterna round: R97, puzzle: Exclusion 6)", "class 0"],
  ["ACUCGACAUGAGGAUCACCCAUGUGAGGAUAUGGCCUGUAUGGCGUGAGCUGGCUAAAUCAGAAGGCGCGUGGG [salish99_ex1_r4_049] (Eterna round: R97, puzzle: Exclusion 1)", "class 2"],
  ["ACUUAUUGAGGAUAUACAUUAAAUUACAUGAGGAUCACCCAUGUUCUUCAAUGUAUAUAUGUAGAAGGCAAAAGAG [Mat - Exclusion 5 - JL Mod - D22] (Eterna round: R97, puzzle: Exclusion 5)", "class 0"]
]}

Exercise: Form field 'band' for AAAUAGUGAGGAUAUUAGUUGUACGUCAAUAGACGUAUAAGUGAGAAGGCACAUGAGGAUCACCCAUGUUCCAG [Omei Ex4 Mod of Mat's R95 mod of Omei v9] (Eterna round: R97, puzzle: Exclusion 4)
Solution: class 1

Exercise: Form field 'band' for GUAACAUGCUGGUGAUCAUACAUGAGGAUCACCCAUGUAACAAGCUUUUUGUUCGUCUUAUAAUUUAAGAUCACCAG [Stov1/7-B3] (Eterna round: R97, puzzle: Sensor, turn-off variant 1)
Solution: class 0

Exercise: Form field 'band' for CUGCUGGAGCUUUGCUUUGGUCGUACAUGAGGAUCACCCAUGUAGGAUAUGGUAAGAUUUGCUUGCUAGAAGGAUAGAGUGGUC [salish99_ExNG3_r04_611] (Eterna round: R96, puzzle: Exclusion NG 3)
Solution: class 1

Exercise: Form field 'band' for GGCAUGUAAGGAUAUGCCACGCAGUCCUUUGGGCUGCGUAAGCAGAAGGUACAUGAGGAUCACCCAUGUGAUAA [jl-ex4-4.56 ViennaUCT mod] (Eterna round: R97, puzzle: Exclusion 4)
Solution: class 2

Exercise: Form field 'band' for AGUUGGGAAGGAUAUACAUGAGGAUCACCCAUGUGAAAUUAUAGUGAGGAAAUGAAAAGUAGAAGGUCCUGACA [Mod of Mat 4 - Jieux - Exclusion 3] (Eterna round: R97, puzzle: Exclusion 3)
Solution: class 2

Exercise: Form field 'band' for AUAAUGUCAGGAUAUCGAGACUACUGCUUCGGCAGUAGUCUCGAGAAGGGACAUGAGGAUCACCCAUGUGAUCA [E4/1-A1] (Eterna round: R97, puzzle: Exclusion 4)
Solution: class 1

Exercise: Form field 'band' for UUGGUUGUGGUAGGAUAUCCGUUGGAAACUGUUGGAGAAGGACCACAGUCACUGGGUCCUUCUUUGGUGGAGUGGAAGAACCAU [pwkr exNG1 F6.17] (Eterna round: R96, puzzle: Exclusion NG 1)
Solution: class 2

Exercise: Form field 'band' for CCUCUACAUGAGGAUCACCCAUGUUAGGAUAUGCCGGCCGACCUCGGGUGUGUAAUACGCAGAAGGAACGUUAC [Eternabot (Original) Solution 49] (Eterna round: R97, puzzle: Exclusion 1)
Solution: class 2
